Where do the numbers come from? From patent US20230339851A1.

pIC50: −log10 of the molar value.
A short record of pIC50 observed with human CXCR6 (Homo sapiens, UniProt O00574) follows.
Sequence (O00574 whole entry): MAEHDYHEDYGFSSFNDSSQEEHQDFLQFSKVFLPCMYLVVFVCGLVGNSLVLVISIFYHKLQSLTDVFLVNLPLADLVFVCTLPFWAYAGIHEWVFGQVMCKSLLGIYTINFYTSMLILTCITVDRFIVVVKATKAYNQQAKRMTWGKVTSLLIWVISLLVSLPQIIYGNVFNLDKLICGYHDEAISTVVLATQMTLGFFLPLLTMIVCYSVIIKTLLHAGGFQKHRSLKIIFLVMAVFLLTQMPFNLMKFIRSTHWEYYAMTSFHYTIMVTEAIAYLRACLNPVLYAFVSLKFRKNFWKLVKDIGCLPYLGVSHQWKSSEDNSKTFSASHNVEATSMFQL

Recall the recorded pIC50 for CCOc1cc(NC(=O)[C@H]2CCOC[C@@H]2CC)ccc1S(=O)(=O)Nc1cccc(OC(F)(F)F)c1 (racemic) with human CXCR6 (Homo sapiens, UniProt O00574) and state it.
≥ 6.70

* * *

A short record of IC50 observed with human CXCR6 (Homo sapiens) follows.

What measured IC50 goes with CC(=O)N[C@H](C(=O)Nc1ccc(S(=O)(=O)Nc2cccc(OC(F)(F)F)c2)c(C)c1)c1ccccc1 [Example 1.481] ?
≤ 200 nM

New cases:
What measured IC50 goes with COc1cc(NC(=O)c2ccnn2C)ccc1S(=O)(=O)Nc1ccc(C#N)c(OC(F)(F)F)c1 [Example 1.015] ?
750 to 2000 nM

Follow-up entry: CCCOc1cc(NC(=O)[C@@H](CO)C(C)C)ccc1S(=O)(=O)Nc1cccc(OC(F)(F)F)c1 [Example 1.551]
≤ 200 nM

Follow-up entry: Cc1cc(NC(=O)c2ccnn2C)cc(F)c1S(=O)(=O)Nc1cccc(OC(F)(F)F)c1 [Example 1.502]
200 to 750 nM

Follow-up entry: CCOc1cc(NC(=O)C(C(=O)NCCO)C2CCCC2)ccc1S(=O)(=O)Nc1cccc(OC(F)(F)F)c1 (stereo not drawn) [Example 1.339]
≤ 200 nM

* * *

A short record of IC50 observed with human CXCR6 (Homo sapiens, UniProt O00574) follows.

Recall the recorded IC50 for CCOc1cc(NC(=O)[C@H]2CC(C)=C(C)C[C@@H]2CO)ccc1S(=O)(=O)Nc1cccc(OC(F)(F)F)c1 [Example 1.250] with human CXCR6 (Homo sapiens, UniProt O00574) and state it.
≤ 200 nM

Follow-up entry: CCOc1cc(NC(=O)[C@@H](O)C(C)C)ccc1S(=O)(=O)Nc1ccc(CC)c(C(F)(F)F)c1 [Example 1.411]
≤ 200 nM

Follow-up entry: CCOc1cc(NC(=O)c2cccnc2C)ccc1S(=O)(=O)Nc1cccc(OC(F)(F)F)c1 [Example 1.200]
≤ 200 nM

Follow-up entry: CCOc1cc(NC(=O)[C@@H](CO)c2ccccc2)ccc1S(=O)(=O)Nc1ccc(CO)c(C(F)(F)F)c1 [Example 1.388]
2000 to 20000 nM

Follow-up entry: CCOc1cc(NC(=O)[C@@H](CO)c2ccccc2)ccc1S(=O)(=O)Nc1ccc(C)c(C(F)(F)F)c1 [Example 1.425]
≤ 200 nM

Follow-up entry: CCOc1cc(NC(=O)[C@@H](CO)C(C)C)ccc1S(=O)(=O)Nc1ccc(C(F)(F)F)cc1 [Example 1.558]
200 to 750 nM

New cases:
Recall the recorded IC50 for COc1cc(NC(=O)[C@@H](O)C(C)C)ccc1S(=O)(=O)Nc1ccc(C)c(C(F)(F)F)c1 [Example 1.369] with human CXCR6 (Homo sapiens, UniProt O00574) and state it.
200 to 750 nM

Follow-up entry: COc1cc(NC(=O)c2ccnn2C)ccc1S(=O)(=O)Nc1ccc(C)c(C(F)(F)F)c1 [Example 1.552]
≤ 200 nM

Follow-up entry: CCOc1cc(NC(=O)[C@@H](CO)c2ccccc2)ccc1S(=O)(=O)Nc1ccc2c(c1)OC(F)(F)O2 [Example 1.121]
2000 to 20000 nM
